Reference source: PubChem BioAssay (NCI)

Kindly supply the reported growth values for the records listed here.
System: EKVX NSCLC
Assay: NCI-60 one-dose screen, 48 h (100 = growth as untreated, 0 = no growth, -100 = all killed)
Conditions: 10 µM unless noted
About 83,000 compounds went through this panel and 20% of them were active in at least one assay; those are over-represented in the sample as a whole.
Give bare numbers, in %.

Worked cases, growth given:
>>> endpoint_result("CCOc1ccc(C(CN2CCOCC2)C(C)=O)cc1OC (stereo unspecified)")
96.2
>>> endpoint_result("CCOC(=O)C1=NN(c2ccccc2)C(=O)/C1=C\\N1C(=O)/C(=C/c2cccc(O)c2)SC1=S")
107
>>> endpoint_result("O=C(c1ccccc1)C(Br)C(Br)c1ccccc1 (stereo unspecified)")
108
>>> endpoint_result("O=C1C=CC(O)=CC1=P(c1ccccc1)(c1ccccc1)c1ccccc1")
93.8
>>> endpoint_result("CN1CSC(=S)N(Cc2ccccc2)C1")
118

Your task in this section: give growth for each listed record.
1. COc1ccc2c(c1)c(CC(=O)O)c(C)n2C(=O)c1ccc(Cl)cc1
2. [Cl-].[Rh+3].c1ccc(-c2ccnc3c2ccc2c(-c4ccccc4)ccnc23)cc1.c1ccc(-c2ccnc3c2ccc2c(-c4ccccc4)ccnc23)cc1.c1ccc(-c2ccnc3c2ccc2c(-c4ccccc4)ccnc23)cc1
3. Cc1cc(Br)c2nsnc2c1[N+](=O)[O-]
4. O=C(Nc1ccc(Cl)c(Cl)c1)Nc1ccccc1O
5. CCCN(CCC)C(=O)c1ccc(C)cc1
6. CCNc1nnnn1CC
7. CCC1CCCCN1C(=S)N/N=C(\C)c1ccccn1 (stereo unspecified)

[out]
1: 95.9; 2: 81.1; 3: 106; 4: 80.4; 5: 89.2; 6: 94.5; 7: 10.9

====

System: HOP-92 NSCLC
Assay: NCI-60 one-dose screen, 48 h (100 = growth as untreated, 0 = no growth, -100 = all killed)
Conditions: 10 µM unless noted
This is part of a sample that, as a whole, favours compounds with a hit. Of some 83,000 tested, about 20% had one in any assay.
READOUT_LABEL: growth (%)
Give bare numbers, in %.

>>> endpoint_result("O=C1c2ccccc2C(=O)c2c(O)c(Cl)cc(O)c21")
87.7
>>> endpoint_result("N#CC(I)CS(=O)(=O)c1ccccc1 (configuration not stated)")
94.5
>>> endpoint_result("O=[N+]([O-])c1ccc(Oc2ccccc2Cl)c([N+](=O)[O-])c1")
83.7
>>> endpoint_result("CCCOC(=O)c1nc(N(CC2CCCCC2)C(=O)NC)sc1/N=C/c1ccccc1")
15.5
>>> endpoint_result("O=C1/C(=C\\c2ccc([N+](=O)[O-])cc2)CS(=O)(=O)C/C1=C/c1ccc([N+](=O)[O-])cc1")
-79.1
>>> endpoint_result("Cc1cc2cccnc2c2ncccc12")
44.6
>>> endpoint_result("CCOC(=O)c1cc(CC)sc1NC(=O)CC(C)=O")
59
>>> endpoint_result("Cc1cc(=O)oc2cc(O)cc(O)c12")
100

Your task in this section: give growth for each listed record.
1. CN(C)c1ccc(C(=C2C=CC(=[N+](C)C)C=C2)c2ccc(N(C)C)cc2)cc1
2. O=C(c1ccccc1)C(O)C(Br)(CBr)c1ccccc1 (configuration not stated)

[out]
1: -70.1; 2: 47.2

====

System: 786-0 renal
Assay: NCI-60 one-dose screen, 48 h
Details: 10 µM unless noted
The panel holds about 83,000 compounds, 20% with a hit somewhere; the sample as a whole holds those more often. Calls of active or inactive are those of the source. The calls were made as follows: active = growth percent below 10; inactive = the rest.
Answer with one of the outcomes Yes (active), No (inactive)

Some entries whose results are on file:
>>> group_label("Clc1ccccc1C(c1ccccc1)(c1ccccc1)n1ccnc1")
"No"
>>> group_label("COc1cc(/C=C2\\SC(=S)N(/C=C/c3nc4ccccc4[nH]c3=O)C2=O)cc(OC)c1OC")
"No"

[in] Recorded call for `O=C1C=CC(=O)N1c1cccc2c1CCCC2` ?
[out] No

[in] Recorded call for `CN(C)c1ccc(/C=C/c2sc3ccc4ccccc4c3[n+]2C)cc1` ?
[out] Yes
